# test-target: Kappa-type opioid receptor (Homo sapiens, UniProt P41145)
# Sequence (P41145 whole entry): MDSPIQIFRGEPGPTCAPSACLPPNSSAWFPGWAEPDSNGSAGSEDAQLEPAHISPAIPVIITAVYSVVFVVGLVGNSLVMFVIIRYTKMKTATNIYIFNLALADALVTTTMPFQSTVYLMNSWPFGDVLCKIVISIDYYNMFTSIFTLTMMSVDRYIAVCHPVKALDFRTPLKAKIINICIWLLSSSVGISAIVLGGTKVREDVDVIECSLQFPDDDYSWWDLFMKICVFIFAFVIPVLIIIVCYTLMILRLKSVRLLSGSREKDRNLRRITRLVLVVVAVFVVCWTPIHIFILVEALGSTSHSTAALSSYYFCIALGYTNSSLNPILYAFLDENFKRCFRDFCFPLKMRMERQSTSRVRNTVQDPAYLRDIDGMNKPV
Where a SMILES comes first, the peptide text is derived from it.
Consider the following compounds; for each one, report its Ki.
Your answer is read as nM, so omit the unit and give the number.

Field Ki (system: Kappa-type opioid receptor (Homo sapiens, UniProt P41145)) for entry `N=C(N)NCCC[C@@H](NC(=O)[C@@H](CCCNC(=N)N)NC(=O)[C@@H]1CCCN1C(=O)c1ccccc1)C(=O)N[C@@H](CCC(N)=O)C(=O)N[C@@H](CC1CCCCC1)C(=O)N[C@H]1CSCSC[C@@H](C(N)=O)NC1=O` = 15.8

Summary: `N=C(N)NCCC[C@@H](NC(=O)[C@@H](CCCNC(=N)N)NC(=O)[C@@H]1CCCN1C(=O)c1ccc(O)cc1)C(=O)N[C@@H](CCC(N)=O)C(=O)N[C@@H](CS)C(=O)N[C@@H](CC1CCCCC1)C(=O)N[C@H]1CSSC[C@@H](C(N)=O)NC1=O` , Kappa-type opioid receptor (Homo sapiens, UniProt P41145), Ki = 1.2

Log: Kappa-type opioid receptor (Homo sapiens, UniProt P41145), compound CC[C@H](C)[C@H](NC(=O)[C@H](CCC(N)=O)NC(=O)[C@H](CCCNC(=N)N)NC(=O)[C@H](Cc1c[nH]cn1)NC(=O)[C@@H]1CSSC[C@H](NC(=O)[C@@H](N)CC(N)=O)C(=O)N1)C(=O)N[C@H]1CSSC[C@@H](C(N)=O)NC1=O (HELM PEPTIDE1{N.C.C.H.R.Q.I.C.C.[am]}$PEPTIDE1,PEPTIDE1,2:R3-3:R3|PEPTIDE1,PEPTIDE1,8:R3-9:R3$$$V2.0) , Ki = 137

Considering `N=C(N)NCCC[C@@H](NC(=O)c1cccc(Cl)c1)C(=O)N[C@H](CCCNC(=N)N)C(=O)N[C@@H](CCC(N)=O)C(=O)N[C@@H](CC1CCCCC1)C(=O)N[C@H]1CSSC[C@@H](C(N)=O)NC1=O` , its Ki with Kappa-type opioid receptor (Homo sapiens, UniProt P41145) was recorded as 6.7

---

# test-target: Kappa-type opioid receptor (Homo sapiens, UniProt P41145)
Where a SMILES comes first, the peptide text is derived from it.
Values of Ki strictly less than 60 nM map to t, and values of at least 60 nM map to f.

Q: A record lists `N=C(N)NCCC[C@@H](NC(=O)[C@@H](CCCNC(=N)N)NC(=O)[C@@H]1CCCN1C(=O)c1ccc2ccccc2c1)C(=O)N[C@@H](CCC(N)=O)C(=O)N[C@@H](CC1CCCCC1)C(=O)N[C@H]1CSSC[C@@H](C(N)=O)NC1=O` . Is its Ki below 60 nM?
Result: t

Q: Does the reported Ki of the following compound sit strictly below 60 nM? N=C(N)NCCC[C@H](NC(=O)[C@H](CCCNC(=N)N)NC(=O)[C@@H]1CSSC[C@H](NC(=O)[C@@H](N)CC(N)=O)C(=O)N1)C(=O)N[C@@H](CCC(N)=O)C(=O)N[C@@H](Cc1cccc2ccccc12)C(=O)N[C@H]1CSSC[C@@H](C(N)=O)NC1=O (HELM PEPTIDE1{N.C.C.R.R.Q.[O=C([C@H](Cc1cccc2ccccc12)N[*:1])[*:2]].C.C.[am]}$PEPTIDE1,PEPTIDE1,2:R3-3:R3|PEPTIDE1,PEPTIDE1,8:R3-9:R3$$$V2.0)
Result: t

Q: I'd appreciate it if you could check whether CC[C@H](C)[C@H](NC(=O)[C@H](CCC(N)=O)NC(=O)[C@H](CCCNC(=N)N)NC(=O)[C@H](CCCNC(=N)N)NC(=O)[C@@H]1CSSC[C@H](NC(=O)[C@@H](N)CC(N)=O)C(=O)N1)C(N)=O (HELM PEPTIDE1{N.C.C.R.R.Q.I.[am]}$PEPTIDE1,PEPTIDE1,2:R3-3:R3$$$V2.0) has Ki smaller than 60 nM.
Result: f

Q: Does the reported Ki of the following compound sit strictly below 60 nM? `N=C(N)NCCC[C@@H](NC(=O)[C@@H](CCCNC(=N)N)NC(=O)[C@@H]1CCCN1C(=O)c1ccccc1)C(=O)N[C@@H](CCC(N)=O)C(=O)N[C@@H](CC1CCCCC1)C(=O)N[C@H]1CSSC[C@@H](C(=O)O)NC1=O`
Result: f

Q: Please indicate whether the reported Ki of `N=C(N)NCCC[C@@H](NC(=O)Cc1ccc(F)cc1)C(=O)N[C@H](CCCNC(=N)N)C(=O)N[C@@H](CCC(N)=O)C(=O)N[C@@H](CC1CCCCC1)C(=O)N[C@H]1CSSC[C@@H](C(N)=O)NC1=O` is strictly below 60 nM.
Result: t

Q: Ki strictly < 60 nM for this compound? `CN(C(=O)[C@H](CC1CCCCC1)NC(=O)[C@H](CCC(N)=O)NC(=O)[C@@H](CCCNC(=N)N)NC(=O)[C@@H](CCCNC(=N)N)NC(=O)[C@@H]1CCCN1C(=O)c1ccccc1)[C@H]1CSSC[C@@H](C(N)=O)NC1=O`
Result: t

Q: Determine whether this compound shows Ki lower than 60 nM (ties excluded): `N=C(N)NCCC[C@H](NC(=O)[C@@H]1CCC(=O)N1)C(=O)N[C@@H](CCCNC(=N)N)C(=O)N[C@@H](CCC(N)=O)C(=O)N[C@@H](CC1CCCCC1)C(=O)N[C@H]1CSSC[C@@H](C(N)=O)NC1=O`
Result: t

Q: Say whether its Ki is strictly beneath 60 nM. Entry: N=C(N)NCCC[C@H](NC(=O)[C@@H]1CCC(=O)N1)C(=O)N[C@@H](CCCNC(=N)N)C(=O)N[C@@H](CCC(N)=O)C(=O)N[C@@H](CC1CCCCC1)C(=O)N[C@H]1CCCCN(CC(N)=O)C1=O (HELM PEPTIDE1{[Glp].R.R.Q.[Cha].[NC(=O)CN1CCCC[C@H](N[*:1])C1=O]}$$$$V2.0)
Result: f

Q: For `N=C(N)NCCC[C@@H](NC(=O)[C@@H](CCCNC(=N)N)NC(=O)[C@@H]1CCCN1C(=O)c1ccccc1)C(=O)N[C@@H](CCC(N)=O)C(=O)N[C@@H](CC1CCCCC1)C(=O)N[C@H]1CSS[C@H]2C[C@@H](C(N)=O)N(C2)C1=O` , is the recorded Ki below the cut-off of 60 nM?
Result: f

Q: Please state whether Ki is below 60 nM for `N=C(N)NCCC[C@@H](NC(=O)[C@@H](CCCNC(=N)N)NC(=O)[C@@H]1CCCN1C(=O)c1ccc(Cl)cc1)C(=O)N[C@@H](CCC(N)=O)C(=O)N[C@@H](CC1CCCCC1)C(=O)N[C@H]1CSSC[C@@H](C(=O)O)NC1=O`
Result: f

Q: API: query returns whether the compound falls strictly under 60 nM in Ki. Query: `N=C(N)NCCC[C@@H](NC(=O)[C@@H](CCCNC(=N)N)NC(=O)[C@@H]1CCCN1C(=O)c1ccccc1)C(=O)N[C@@H](CCC(N)=O)C(=O)N[C@@H](CC1CCCCC1)C(=O)N1C[C@@H]2C[C@H]1C(=O)N[C@H](C(N)=O)CSS2`
Result: f

Q: Is 60 nM strictly greater than the compound's reported Ki? compound: N=C(N)NCCC[C@H](NC(=O)[C@H](CCCNC(=N)N)NC(=O)[C@@H]1CSSC[C@H](NC(=O)[C@@H](N)CC(N)=O)C(=O)N1)C(=O)N[C@@H](CCC(N)=O)C(=O)N[C@@H](Cc1ccccc1)C(=O)N[C@H]1CSSC[C@@H](C(N)=O)NC1=O (HELM PEPTIDE1{N.C.C.R.R.Q.F.C.C.[am]}$PEPTIDE1,PEPTIDE1,2:R3-3:R3|PEPTIDE1,PEPTIDE1,8:R3-9:R3$$$V2.0)
Result: t

Q: Say whether its Ki is strictly beneath 60 nM. Entry: CC[C@H](C)[C@@H]1NC(=O)[C@H](CCC(N)=O)NC(=O)[C@H](CCCNC(=N)N)NC(=O)[C@H](CCCNC(=N)N)NC(=O)[C@@H]2CSSC[C@H](NC1=O)C(=O)N[C@H](C(N)=O)CSSC[C@H](NC(=O)[C@@H](N)CC(N)=O)C(=O)N2 (HELM PEPTIDE1{N.C.C.R.R.Q.I.C.C.[am]}$PEPTIDE1,PEPTIDE1,2:R3-9:R3|PEPTIDE1,PEPTIDE1,3:R3-8:R3$$$V2.0)
Result: f

Q: Ki under 60 nM? Item: `N=C(N)NCCC[C@@H](NC(=O)[C@H]1NCCc2ccccc21)C(=O)N[C@H](CCCNC(=N)N)C(=O)N[C@@H](CCC(N)=O)C(=O)N[C@@H](CC1CCCCC1)C(=O)N[C@H]1CSSC[C@@H](C(N)=O)NC1=O`
Result: t

---

# Species: Homo sapiens
# experiment-summary: Selectivity ratio, ratio of Ki for human KOR to Ki for human DOR
Where a SMILES comes first, the peptide text is derived from it.
Provide the reported Ratio Ki of each item.

Ratio Ki in this record for `N=C(N)NCCC[C@@H](NC(=O)[C@@H]1CCC(=O)N1)C(=O)N[C@H](CCCNC(=N)N)C(=O)N[C@@H](CCC(N)=O)C(=O)N[C@@H](CC1CCCCC1)C(=O)N[C@H]1CSSC[C@@H](C(N)=O)NC1=O` : > 10000

So, `N=C(N)NCCC[C@@H](NC(=O)[C@@H](CCCNC(=N)N)NC(=O)[C@@H]1CCCN1C(=O)c1ccccc1)C(=O)N[C@@H](CCC(N)=O)C(=O)N[C@@H](CC1CCCCC1)C(=O)N[C@H]1CSSC[C@@H](C(N)=O)NC1=O` ? Its Ratio Ki was > 250000

The recorded Ratio Ki for CC[C@H](C)[C@H](NC(=O)[C@H](CCC(N)=O)NC(=O)[C@H](CCCNC(=N)N)NC(=O)[C@H](CCCNC(=N)N)NC(=O)[C@@H]1CCC(=O)N1)C(=O)N[C@H]1CSSC[C@@H](C(N)=O)NC1=O (HELM PEPTIDE1{[Glp].R.R.Q.I.C.C.[am]}$PEPTIDE1,PEPTIDE1,6:R3-7:R3$$$V2.0) is > 250

// recorded Ratio Ki for `CC1(C)SSC[C@@H](C(N)=O)NC(=O)[C@H]1NC(=O)[C@H](CC1CCCCC1)NC(=O)[C@H](CCC(N)=O)NC(=O)[C@@H](CCCNC(=N)N)NC(=O)[C@@H](CCCNC(=N)N)NC(=O)[C@@H]1CCC(=O)N1` : > 1200

// Ratio Ki lookup, compound = `N=C(N)NCCC[C@H](NC(=O)[C@@H]1CCC(=O)N1)C(=O)N[C@@H](CCCNC(=N)N)C(=O)N[C@@H](CCC(N)=O)C(=O)N[C@@H](CC1CCCCC1)C(=O)N[C@H]1CSSC[C@@H](C(N)=O)NC1=O` , result: > 10000
